Entry source: PubChem BioAssay (NCI)

- Assay Explanation: NCI Yeast Anticancer Drug Screen. Data for the rad52 strain (AID 147)
- Details: S. cerevisiae rad52 mutant growth inhibition; at 100.0 µM
This is part of a sample that, as a whole, favours compounds with a hit. Of some 79,000 tested, about 15% had one in any assay. Activity calls are given as the source filed them. Cut-off read from the data, not from the text of the source: active = growth inhibition above about 70%; inactive = the rest.
Labels: active, inactive

[[record]]
molecule = "O=NC1c2cccc3cccc(c23)C1N=O (stereo not given)"
group_label = "active"

[[record]]
molecule = "CCCCCCCC/C=C\\CCCCCCCCN"
group_label = "active"

[[record]]
molecule = "CC(C)(Br)C(=O)/C=C/c1ccccc1"
group_label = "active"

[[record]]
molecule = "COc1ccc2cc(C(C)C(=O)N3CCOC3=O)ccc2c1 (stereo not given)"
group_label = "inactive"

[[record]]
molecule = "CCCCCCCN(CCCCCCC)CC(=O)c1ccc2cc(Cl)c3ccccc3c2c1"
group_label = "active"

[[record]]
molecule = "O=C(NCCCCN(CCCNC(=O)C(F)(F)F)Cc1ccccc1)C(F)(F)F"
group_label = "inactive"

[[record]]
molecule = "Oc1ccc(C2(c3ccc(O)cc3)CCCC2)cc1"
group_label = "active"

[[record]]
molecule = "CCCCOc1ccc2nc(C)cc(N=[N+]=[N-])c2c1"
group_label = "active"

[[record]]
molecule = "CCCNCC(=O)O[C@]1(CC)C(=O)OCc2c1cc1n(c2=O)Cc2cc3ccccc3nc2-1"
group_label = "active"

[[record]]
molecule = "Cc1cccc2c(Cl)c3cccc(C)c3nc12"
group_label = "inactive"

